- run.description: Tested for the therapeutic index, which was determined as the ratio of ED50 for ataxia and ED50 to prevent seizures
- experimental.conditions: read-out: TI
readout.type: selectivity ratio
The answer should be written as a number, with no unit following it.

compound: O=C(O)C1CN(CCCP(=O)(O)O)CCN1 (configuration not stated)
selectivity ratio: 2.21

Moving on to the next compound.
Entry "O=C(O)[C@H]1Cc2c(CCP(=O)(O)O)cccc2CN1" — recorded selectivity ratio = 1.76

====

- system: Glutamate NMDA receptor
- run.description: Tested for the inhibitory activity against NMDA receptor site as measured in a [3H]CPP binding assay of rat brain neuronal membranes
readout.type: pIC50
Please keep in mind that pIC50 is minus log10 of the molar concentration; only the number is needed.

Entry O=C(O)[C@H]1Cc2c(CCP(=O)(O)O)cccc2CN1 (racemic) — recorded pIC50 = 6.57

====

- run.description: Partition coefficient (logP)
- Type: physicochemical
- experimental.conditions: octanol/water
This listing pairs compounds with measured logP.

Entry O=C(O)[C@H]1Cc2c(CCP(=O)(O)O)cccc2CN1 (racemic) — recorded logP = 1.4

Entry O=C(O)C1CN(CCCP(=O)(O)O)CCN1 (configuration not stated) — recorded logP = -3.4
